The measurements presented in this section are drawn from the supplement of paper PMC6555819.

System: VDR:RXRa (NR concentration 270 nM, RXRa partner concentration 90 nM)
Test: PBM binding z-score (relative to random genomic background probes); higher = stronger binding; sequences stand for … in GC…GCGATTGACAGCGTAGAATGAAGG
Please note: Criterion met applies when PBM binding z-score is 2 or greater, and Criterion not met applies otherwise.

Consider the following illustrative entries.
CCAGACAGGTGAAAGGTAACACAGTCTGGTACGC
Criterion not met
CGAACGAGGGCATGAGTTGGTAGCAAATGCCGAT
Criterion not met
GCTAGTTGGTTAGTAAAAGGTCACACACCGGTCG
Criterion met
TCATGTAGATCAGCAGGTTAAGAAAGCTGGCCAA
Criterion not met
TCTTGTAGATCAACAGGAGGCTAAGAAAGATCGA
Criterion not met

input: Please tell me: is the sequence AGTCAAAGTTCACTAGGTAACGCAAGATTCAGCT at or over 2 in terms of PBM binding z-score?
output: Criterion met

input: Please tell me: is the sequence AGAACGAGGTTAAGATCAGGGAAACAGAATACAT at or over 2 in terms of PBM binding z-score?
output: Criterion not met

----------
System: LXRa:RXRa (NR concentration 270 nM, RXRa partner concentration 90 nM)
Experiment: PBM binding z-score (relative to random genomic background probes); higher = stronger binding; sequences stand for … in GC…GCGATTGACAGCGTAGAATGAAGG
PBM binding z-score for assorted sequences
Just the number.

Example results:
CGGACGAGGGCATGAGTTGATAGCAAATGCCGAT
0.0809
ATCGCTAGGTAAAGATAGTTCAGTGAATGCAAAT
3.12
TCTTGTAGATCAACAGAAGGTTAAGAAAGATCGA
1.11
GCAGATAGGTAATACAAGGTGAAAGTCCGATTGT
2.24
CCTAGCAGGTCAATCTGGGTCACTCAAGGCTTGA
6.27

So, ACTGTTAGTTGACTTAGGGCAACCGATACGACGC ? Its PBM binding z-score was 0.575

So, TCTCGGAGGACACGAAAGGTTAGAGCTCGACATC ? Its PBM binding z-score was 0.89

So, CCTACTAGGCCAAAAAGGTCATTGATGCCGATAA ? Its PBM binding z-score was 4.67

So, GCAGACTGGTGAAACGCAGGTAACTCAGGGTGGC ? Its PBM binding z-score was -0.932

So, CCGACTGGGGCAAAGGTTACCATTCTCAGTACGA ? Its PBM binding z-score was 1.29

----------
Tested on: PPARg:RXRa (NR concentration 180 nM, RXRa partner concentration 90 nM)
Assay: PBM binding z-score (relative to random genomic background probes); higher = stronger binding; sequences stand for … in GC…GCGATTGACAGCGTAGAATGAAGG
PBM binding z-score for assorted sequences
Just the number.

TGAATGAGGTTATAAGATCAGGAAACGTTGCAAA
1.29
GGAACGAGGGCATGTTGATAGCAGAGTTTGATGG
0.848
ACTAGCAGGCCAAGTGTCACTCAAGATTAGTCCG
1.95
TCTCGGAGGACACGAGGGTCAGAGCTTTCCAGAG
0.145
TCGATTAGGTTAGTCGGGGCATTCAGCCAACATA
-0.279

So, TCCCGGAGGACACGAAAGGTCAGAGCTCGACATC ? Its PBM binding z-score was 1.51

So, TCTTGTAGATCAAAAGTTAAGAAAGCCGAAGCCT ? Its PBM binding z-score was 1.83

So, TCTCGGAGGACACGAAGGTTAGAGCTTTCCAGAG ? Its PBM binding z-score was -0.0287

So, ATCTCTAGGTAAAGATAGTTCAGTGCATGCAAAT ? Its PBM binding z-score was 0.357

So, CCTACTGGGCCATTCAGAGGTCATTGCTCATATG ? Its PBM binding z-score was 1.99

So, CTACCAAGGTGAACAAGATCGTTGATTACTATTC ? Its PBM binding z-score was 0.756

So, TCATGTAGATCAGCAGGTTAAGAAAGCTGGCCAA ? Its PBM binding z-score was -0.175

So, TACACAGGGTCAAAGGCCAGAGTACGAATGTCGA ? Its PBM binding z-score was 7.46

----------
Test system: PXR homodimer (NR concentration 270 nM)
Assay: PBM binding z-score (relative to random genomic background probes); higher = stronger binding; sequences stand for … in GC…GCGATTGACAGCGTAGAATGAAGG
Please note: rule met applies when PBM binding z-score is 0.9 or greater, and rule not met applies otherwise.

TCGCCTAGGTCATTCAGGGGCCAGTATAGAAAGC
rule not met
CCTAGCAGGCCAGGGTCACACAAGCATTTCGCTT
rule not met

input: Please tell me: is the sequence CGTCCAAGGTCATAGGAGGTCAGTGAAGACAGAT at or over 0.9 in terms of PBM binding z-score?
output: rule met

----------
Tested on: RARa homodimer (NR concentration 270 nM)
Assay: PBM binding z-score (relative to random genomic background probes); higher = stronger binding; sequences stand for … in GC…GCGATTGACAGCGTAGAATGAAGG
PBM binding z-score for assorted sequences
Just the number.

CAGCCTAGGTCAGCGCCAGTATAGGAGGAACGTT
-0.632
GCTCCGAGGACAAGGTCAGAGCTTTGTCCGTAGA
-0.762
TCTAGTTGGTCACCGAGGTCACACACGACGGGTA
1.78
CCTACTGGGCCAAAAAGGGCATTGATGCCGATAA
-0.572
GCTAGTTGGTCAGTACAAGGTCACACACCGGTCG
0.633

So, TCTTGTAGATCAAACGTTAAGAAAGCCGAAGCCT ? Its PBM binding z-score was -0.409

So, GCTACTGGGGCATCAGCAGGTTACCATAACTTAA ? Its PBM binding z-score was -0.28

So, CGTCCAAGGTCTATGCTAGGTCAGTGAAAGCATT ? Its PBM binding z-score was 0.289

So, TCTACTAGGTCAGTTGGTCAGCTAACGAGCTGCC ? Its PBM binding z-score was 0.501

So, ATCGAAAGGTCGAAGGGGAGTATACCCACCCGAA ? Its PBM binding z-score was 0.273

So, CGTCAAAGTTCAATTAAGGTAACGTAAAGCACGC ? Its PBM binding z-score was 1.69

So, CCTACTCGGCCAAGGTCATTGATCAGTCAAAGCA ? Its PBM binding z-score was 1.82

So, GGAAAGAGGGCATTCGAGTTGATAGCATGGCGAT ? Its PBM binding z-score was 0.298

So, ATATGTAGGTTAAGGGTCATTCCGGTTGGTTCGC ? Its PBM binding z-score was 1.66

So, TGACCAAGGTGAAAGGTCGTTGATGCACGCCTTG ? Its PBM binding z-score was -0.166

----------
Tested on: LXRb homodimer (NR concentration 270 nM)
Assay: PBM binding z-score (relative to random genomic background probes); higher = stronger binding; sequences stand for … in GC…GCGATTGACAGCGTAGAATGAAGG
PBM binding z-score for assorted sequences
Just the number.

Example results:
CAAACTAGGTCACGAAAAGTCAAAGTCGAATGAC
0.716
ATCTCTAGGTAACCACGTTCAGTGAATGCCGAAC
0.814
ATCTCAAGGTAACAAGTTCAGTGAAAGAGAGGAC
0.9

So, CCTCCTAGGTCATGGTCAGCTAATCTACAGTATG ? Its PBM binding z-score was 0.0954

So, CAAACTAGGTCACTGAGGTCAAAGTCCGTGCGTA ? Its PBM binding z-score was 1.56

So, CCTACTGGGCCATTCAGAGGTCATTGGTCATATG ? Its PBM binding z-score was 0.551

So, ATTTCTAGGTAACCAAGTTCAGTGAATGCCGAAC ? Its PBM binding z-score was 0.68

So, CGTCCAGGGTCAAAGGTCAGTGAAGAGATGACGG ? Its PBM binding z-score was 0.58

So, TCTATTTGTTGAAGGGCAACCGACGAGTCCGTTT ? Its PBM binding z-score was 1.45

----------
Test system: PPARa:RXRa (NR concentration 270 nM, RXRa partner concentration 90 nM)
Test: PBM binding z-score (relative to random genomic background probes); higher = stronger binding; sequences stand for … in GC…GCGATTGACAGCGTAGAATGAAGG
Observation type: PBM binding z-score
Just the number.

Example results:
CGCACTAGGTCAAGGACAGTGAATCTCCGCACGC
4.26
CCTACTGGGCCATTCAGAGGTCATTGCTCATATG
3.57
TAGCCTAGGTCAGACCGGGCCAGTATACGCTATA
1.61
CCGACTGGGGCATAAGGGTACCATAAGCCAGCCC
0.305
TCTTGTAGATCAACAGGAGGTTATGAAAGATCGA
1.2

Consider the record given below.
So, GCTGCTAGGACAGGTTGGTCAGCTAACGGGTACG ? Its PBM binding z-score was -0.661
